Data provenance: patent US9023860B2

Measured half-life at 2.2 mM values are reported for all entries that follow.
EXPERIMENTAL_PROTOCOL: In Vitro Cyclization Assay (disappearance of test compound in buffer, half-life of degradation)
Type: physicochemical
REPORTED_CONDITIONS: nominal pH 7.4; 50 mM phosphate/citrate buffer; 20° C.; approximately 2.2 mM; read-out: Ave (half-life of degradation) (converted)
Structures can show the parent of a compound that is named as a salt.
MEASUREMENT_LABEL: half-life at 2.2 mM (h)

>>> print(df.to_string())
                                   compound    measurement_label  result_value
0  CN(CC(F)CN)C(=O)Oc1ccc2c3c1O[C@H]1C(=O)CC[C@H]4[C@@H](C2)N(C)CC[C@]314 (stereo partly drawn) [Example 2, Hydrochloride]  half-life at 2.2 mM          18.1
1  CN(CC(F)(F)CN)C(=O)Oc1ccc2c3c1OC1C(=O)CCC4C(C2)N(C)CCC314 (stereo not drawn) [Example 1, Hydrochloride]  half-life at 2.2 mM          9.43
2  CN(CCCN)C(=O)Oc1ccc2c3c1O[C@H]1C(=O)CC[C@H]4[C@@H](C2)N(C)CC[C@]314 [Comparison, Hydrochloride, reference compound]  half-life at 2.2 mM           224

###

# half-life at 2.2 mM annotations
EXPERIMENTAL_PROTOCOL: In Vitro Cyclization Assay (disappearance of test compound in buffer, half-life of degradation)
Format: physicochemical
REPORTED_CONDITIONS: nominal pH 6; 50 mM phosphate/citrate buffer; 20° C.; approximately 2.2 mM; read-out: Ave (half-life of degradation) (converted)
Description: 1. In Vitro Cyclization Assay This assay measures the ability of a test compound of the present invention to cyclize in vitro. Also determined is the time required to effect such cyclization. Test compounds are dissolved (approximately 2.2 mM) in 50 mM phosphate/citrate buffers at a variety of pHs, including pH 7.4 and pH 8.5. The disappearance of the test compounds is observed over time by incubating the solutions at 20° C. and periodically quantifying the concentration of the remaining compound. […]
Counter-ions that a name gives are not always drawn.
MEASUREMENT_LABEL: half-life at 2.2 mM (days)

                                   compound  result_value
0  CN(CCCN)C(=O)Oc1ccc2c3c1O[C@H]1C(=O)CC[C@H]4[C@@H](C2)N(C)CC[C@]314 [Comparison, Hydrochloride, reference compound]           133
1  CN(CC(F)CN)C(=O)Oc1ccc2c3c1O[C@H]1C(=O)CC[C@H]4[C@@H](C2)N(C)CC[C@]314 (stereo partly drawn) [Example 2, Hydrochloride]          13.9
2  CN(CC(F)(F)CN)C(=O)Oc1ccc2c3c1OC1C(=O)CCC4C(C2)N(C)CCC314 (stereo not drawn) [Example 1, Hydrochloride]          4.13

###

EXPERIMENTAL_PROTOCOL: In Vitro Cyclization Assay (disappearance of test compound in buffer, half-life of degradation)
Assay type: physicochemical
REPORTED_CONDITIONS: nominal pH 8.5; 50 mM phosphate/citrate buffer; 20° C.; approximately 2.2 mM; read-out: Ave (half-life of degradation) (converted)
Where a name gives a salt, the structure may show the parent alone.
MEASUREMENT_LABEL: half-life at 2.2 mM

                                   compound    measurement_label  result_value
0  CN(CCCN)C(=O)Oc1ccc2c3c1O[C@H]1C(=O)CC[C@H]4[C@@H](C2)N(C)CC[C@]314 [Comparison, Hydrochloride, reference compound]  half-life at 2.2 mM          74 h
1  CN(CC(F)CN)C(=O)Oc1ccc2c3c1O[C@H]1C(=O)CC[C@H]4[C@@H](C2)N(C)CC[C@]314 (stereo partly drawn) [Example 2, Hydrochloride]  half-life at 2.2 mM        5.18 h
2  CN(CC(F)(F)CN)C(=O)Oc1ccc2c3c1OC1C(=O)CCC4C(C2)N(C)CCC314 (stereo not drawn) [Example 1, Hydrochloride]  half-life at 2.2 mM        6.13 h

###

The entries below come with measured half-life at 2.2 mM values attached.
EXPERIMENTAL_PROTOCOL: In Vitro Cyclization Assay (disappearance of test compound in buffer, half-life of degradation)
Assay type: physicochemical
REPORTED_CONDITIONS: nominal pH 10; citrate/phosphate/glycine buffer; 20° C.; approximately 2.2 mM; read-out: Ave (half-life of degradation) (converted)
Where a name gives a salt, the structure may show the parent alone.
MEASUREMENT_LABEL: half-life at 2.2 mM (h)

                                   compound  result_value
0  CN(CC(F)CN)C(=O)Oc1ccc2c3c1O[C@H]1C(=O)CC[C@H]4[C@@H](C2)N(C)CC[C@]314 (stereo partly drawn) [Example 2, Hydrochloride]          1.68
1  CN(CC(F)(F)CN)C(=O)Oc1ccc2c3c1OC1C(=O)CCC4C(C2)N(C)CCC314 (stereo not drawn) [Example 1, Hydrochloride]          8.04
2  CN(CCCN)C(=O)Oc1ccc2c3c1O[C@H]1C(=O)CC[C@H]4[C@@H](C2)N(C)CC[C@]314 [Comparison, Hydrochloride, reference compound]          1.33
